All values here come from patent US20240116921A1.

Molecular target: Ba/F3 ERBB2 A775_G776insYVMA (Homo sapiens, UniProt P04626, DUP772-775, cells depend on it)
Sequence (P04626 with tags, fused parts or gaps DUP772-775): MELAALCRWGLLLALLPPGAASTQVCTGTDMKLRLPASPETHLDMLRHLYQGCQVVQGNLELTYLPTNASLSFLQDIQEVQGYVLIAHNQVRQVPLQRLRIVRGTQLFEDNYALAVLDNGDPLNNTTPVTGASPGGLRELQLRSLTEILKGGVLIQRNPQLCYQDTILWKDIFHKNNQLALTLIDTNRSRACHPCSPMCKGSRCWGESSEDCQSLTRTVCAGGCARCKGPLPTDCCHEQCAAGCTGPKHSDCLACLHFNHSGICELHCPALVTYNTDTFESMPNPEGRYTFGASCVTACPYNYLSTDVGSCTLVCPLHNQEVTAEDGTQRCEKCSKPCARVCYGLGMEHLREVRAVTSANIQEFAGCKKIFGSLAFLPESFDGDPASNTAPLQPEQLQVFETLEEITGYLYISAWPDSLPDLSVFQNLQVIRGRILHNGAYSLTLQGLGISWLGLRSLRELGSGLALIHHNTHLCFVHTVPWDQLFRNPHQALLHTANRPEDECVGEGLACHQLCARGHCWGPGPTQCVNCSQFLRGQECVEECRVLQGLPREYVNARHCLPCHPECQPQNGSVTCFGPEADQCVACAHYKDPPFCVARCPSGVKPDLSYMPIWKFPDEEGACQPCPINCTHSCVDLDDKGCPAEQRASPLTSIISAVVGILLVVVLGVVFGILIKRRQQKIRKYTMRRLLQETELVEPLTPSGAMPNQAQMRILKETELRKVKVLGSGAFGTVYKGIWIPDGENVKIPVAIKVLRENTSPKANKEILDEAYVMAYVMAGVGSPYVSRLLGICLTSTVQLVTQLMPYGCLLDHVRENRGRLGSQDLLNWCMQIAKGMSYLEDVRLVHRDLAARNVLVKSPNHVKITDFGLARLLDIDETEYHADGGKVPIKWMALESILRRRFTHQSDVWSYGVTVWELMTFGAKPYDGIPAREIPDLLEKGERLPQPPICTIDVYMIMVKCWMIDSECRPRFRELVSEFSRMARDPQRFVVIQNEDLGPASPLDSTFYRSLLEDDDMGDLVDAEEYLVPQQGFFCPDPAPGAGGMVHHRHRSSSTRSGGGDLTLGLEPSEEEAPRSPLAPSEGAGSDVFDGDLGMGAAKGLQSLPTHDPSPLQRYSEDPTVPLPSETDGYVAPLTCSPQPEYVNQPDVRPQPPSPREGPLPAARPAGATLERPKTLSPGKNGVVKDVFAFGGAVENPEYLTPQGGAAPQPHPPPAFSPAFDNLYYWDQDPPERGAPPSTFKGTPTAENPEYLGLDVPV
Test: Cell viability assay, Ba/F3 ERBB2 A775_G776insYVMA
Type: cell-based, mouse
Settings: Ba/F3 ERBB2 YVMA cells, cell viability, 72 hours, CellTiter Glo; Table B5; read-out: Ba/F3 ERBB2 YVMA, IC50
Note to self: GI50 under 5 nM means 1 (yes), ties and anything higher get 0 (no).

Consider the worked cases shown below.
Cc1cc(Nc2ncnc3cnc(N4CC/C(=C\CN(C)C)C4=O)cc23)c(F)cc1Oc1ccc2c(c1)ncn2C = 0 (no)
C=C1CCCN(c2ccc3ncnc(Nc4ccc(Oc5ccn6ncnc6c5)c(C)c4)c3n2)C1=O = 0 (no)
Cc1cc(Nc2ncnc3ccc(N4CC/C(=C\CCN(C)C)C4=O)nc23)ccc1Oc1ccc2c(c1)ncn2C = 1 (yes)
CNC/C=C1\CCN(c2ccc3ncnc(Nc4ccc(Oc5ccc6c(c5)ncn6C)c(C)c4)c3n2)C1=O = 1 (yes)

[ask] Confirm or reject: GI50 of `CN(C)C/C=C1\CCN(c2ccc3ncnc(Nc4cc(F)c(Oc5ccn6ncnc6c5)cc4F)c3n2)C1=O` lies strictly below 5 nM
[reply] 0 (no)

[ask] Now consider `Cc1ccc(Oc2ccc(Nc3ncnc4cnc(N5CC/C(=C\CN(C)C)C5=O)cc34)cc2C)cn1` .
[reply] 0 (no)

---

Test system: BT-474
Test: Cell viability assay (CellTiter Glo), BT-474
Type: cell-based
Details: Homo sapiens; BT-474 cells, 72 hours, CellTiter Glo; read-out: IC50, cell viability, BT-474
Below: a set of entries, each annotated with reported pIC50.
API: returns pIC50 as number; meaning -log10 of concentration in mol/L.

[ask] If you can, please state the reported pIC50 value of C=C1CCN(c2ccc3ncnc(Nc4ccc(Oc5ccc(C)nc5)c(C)c4)c3c2)C1=O [Compound 3] .
[reply] 7.71

[ask] Now consider C=C1CCN(c2ccc3ncnc(Nc4ccc(Oc5ccn6ncnc6c5)c(F)c4)c3c2)C1=O [Compound 11] .
[reply] 5.12

[ask] Now consider C=C1C(=O)N(c2ccc3ncnc(Nc4ccc(Oc5ccn6ncnc6c5)c(C)c4)c3c2)CC12CC2 [Compound 2] .
[reply] 7.71

[ask] Now consider C=C1CCN(c2ccc3ncnc(Nc4ccc(Oc5ccn6ncnc6c5)c(C)c4F)c3c2)C1=O [Compound 14] .
[reply] 8.36

[ask] Now consider C=C1CCN(c2ccc3ncnc(Nc4ccc(Oc5ccn6ncnc6c5)c(Cl)c4)c3c2)C1=O [Compound 10] .
[reply] 7.57

---

Molecular target: Ba/F3 ERBB2 A775_G776insYVMA (Homo sapiens, UniProt P04626, DUP772-775, cells depend on it)
Experiment: Cell viability assay, Ba/F3 ERBB2 A775_G776insYVMA
Format: cell-based, mouse
Conditions: Ba/F3 ERBB2 YVMA cells, cell viability, 72 hours, CellTiter Glo; Table B5; read-out: Ba/F3 ERBB2 YVMA, IC50
Where a name gives a salt, the structure may show the parent alone.
QUANTITY: GI50 (nM)
The response must be a number in nM with no trailing unit.

C=C1CCCN(c2ccc3ncnc(Nc4ccc(Oc5ccc6c(c5)ncn6C)c(C)c4)c3n2)C1=O = 18.6

[ask] If you can, please state the reported GI50 value of C=C1C(=O)N(c2ccc3ncnc(Nc4ccc(Cc5ccn6ncnc6c5)c(C)c4)c3c2)C2CC12 (single isomer, unassigned) [Example S79, Enantiomer #1] .
[reply] 32.1

[ask] Now consider Cc1cc(Nc2ncnc3cnc(N4CC/C(=C\CCN(C)C)C4=O)cc23)ccc1Oc1ccn2ncnc2c1 [Compound 60, formate] .
[reply] 22.5
